- System: OVCAR-3
- ASSAY REMARKS: NCI tumour cell line growth inhibition, 48 h
Activity calls are given as the source filed them. No stated cut-off is given here; in the data, active = GI50 up to about 1.1 µM and inactive = higher. Where a SMILES comes first, the peptide text is derived from it. The star is where a group is joined. Boc = CC(C)(C)OC(=O)*; OBn = c1ccc(CO*)cc1
Give one outcome, nothing more. List: yes (1) (active), no (0) (inactive)

Answered cases to consult:
{"MOLECULE": "O=c1cc(N2CCNCC2)nc2ccccn12", "TARGET UNDER TEST": "OVCAR-3", "QUALITATIVE LABEL": "no (0)"}
{"MOLECULE": "CC[C@@]1(O)C(=O)OCc2c1cc1n(c2=O)Cc2c-1nc1ccccc1c2/C=N\\NC(=O)C1CCCN1 (stereo partly drawn)", "TARGET UNDER TEST": "OVCAR-3", "QUALITATIVE LABEL": "no (0)"}
{"MOLECULE": "Nc1ccc(Cc2c(N)[nH]c(=O)[nH]c2=O)cc1", "TARGET UNDER TEST": "OVCAR-3", "QUALITATIVE LABEL": "no (0)"}
{"MOLECULE": "CC(C)(C)c1ccccc1N1C(=O)c2ccc3c4c(ccc(c24)C1=O)N(c1ccccc1C(C)(C)C)C3=O", "TARGET UNDER TEST": "OVCAR-3", "QUALITATIVE LABEL": "no (0)"}
{"MOLECULE": "C=C1C(=O)O[C@@H]2[C@H](O)[C@@H](C)[C@@H]3C=CC(=O)[C@@]3(C)[C@H](OC(=O)C=C(C)C)[C@H]12", "TARGET UNDER TEST": "OVCAR-3", "QUALITATIVE LABEL": "yes (1)"}

Which outcome was assigned to Cc1cccc(/C=N/NC(=S)NCc2ccccn2)n1 in this test?
no (0)

Now consider O=C(O)C1CCC(=O)N1C(=O)C(Cl)c1ccccc1 (stereo not drawn) .
no (0)

Now consider CC(C)CC(NC(=O)OC(C)(C)C)C(=O)N1CCCC1C(=O)OCc1ccccc1 (stereo not drawn) (Boc-Leu-Pro-OBn; configuration not given here) .
no (0)
